- assayed-system: KCNT1 (KNa1.1, Slack) (Homo sapiens (Human))
- Sequence (Q5JUK3 whole entry): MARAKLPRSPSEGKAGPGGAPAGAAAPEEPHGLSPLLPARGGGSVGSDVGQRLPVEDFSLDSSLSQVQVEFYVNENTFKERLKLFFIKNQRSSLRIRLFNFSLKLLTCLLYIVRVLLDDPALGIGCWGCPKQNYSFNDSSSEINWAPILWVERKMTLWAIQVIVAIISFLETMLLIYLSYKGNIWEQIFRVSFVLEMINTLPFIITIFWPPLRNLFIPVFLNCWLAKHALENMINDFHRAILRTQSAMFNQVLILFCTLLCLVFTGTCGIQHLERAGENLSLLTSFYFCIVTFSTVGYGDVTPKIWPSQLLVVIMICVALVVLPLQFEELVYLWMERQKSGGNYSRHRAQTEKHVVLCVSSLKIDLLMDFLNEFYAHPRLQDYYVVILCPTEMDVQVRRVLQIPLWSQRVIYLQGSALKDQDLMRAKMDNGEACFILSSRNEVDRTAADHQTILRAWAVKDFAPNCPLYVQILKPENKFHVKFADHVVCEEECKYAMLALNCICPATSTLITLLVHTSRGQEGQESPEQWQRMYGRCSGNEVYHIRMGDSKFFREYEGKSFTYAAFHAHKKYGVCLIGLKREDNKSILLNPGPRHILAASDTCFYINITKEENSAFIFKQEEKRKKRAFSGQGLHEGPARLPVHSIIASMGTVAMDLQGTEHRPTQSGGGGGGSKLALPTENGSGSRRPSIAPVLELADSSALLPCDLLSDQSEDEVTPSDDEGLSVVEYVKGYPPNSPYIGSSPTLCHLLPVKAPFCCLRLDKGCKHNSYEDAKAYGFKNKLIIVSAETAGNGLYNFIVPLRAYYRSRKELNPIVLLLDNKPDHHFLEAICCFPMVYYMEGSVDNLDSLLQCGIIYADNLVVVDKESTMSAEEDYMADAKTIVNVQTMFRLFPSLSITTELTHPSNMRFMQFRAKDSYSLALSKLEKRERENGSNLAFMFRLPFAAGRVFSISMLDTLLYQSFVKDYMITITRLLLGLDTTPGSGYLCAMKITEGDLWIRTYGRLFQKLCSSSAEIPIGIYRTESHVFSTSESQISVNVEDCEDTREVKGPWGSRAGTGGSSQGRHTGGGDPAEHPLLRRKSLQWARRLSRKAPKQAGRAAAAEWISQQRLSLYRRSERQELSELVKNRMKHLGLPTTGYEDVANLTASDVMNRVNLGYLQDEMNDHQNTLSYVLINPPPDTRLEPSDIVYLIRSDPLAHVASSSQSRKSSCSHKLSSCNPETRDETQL
- protocol-text: KCNT1-WT-Basal - Patch Clamp Assay
- setup-conditions: tetracycline inducible HEK-TREX cell line; SyncroPatch 384PE automated patch clamp; step to 0 mV; room temperature
Hi there, I'd appreciate the recorded IC50 for every entry that follows.

IC50 lookup needed for C[C@H](NC(=O)c1cc(C(F)(F)F)nn1C)c1nc(-c2ccnc(C3CC3)c2)ns1 (single isomer, unassigned) [Example 12] , thanks.
≤ 1000 nM

Item: C[C@H](NC(=O)c1ccnn1C1CCC1)c1cc(-c2ccnc(C(F)(F)F)c2)no1 (single isomer, unassigned) [Example 37]
1000 to 20000 nM

Item: COc1cc(-c2nsc([C@@H](C)NC(=O)c3cc(C(F)(F)F)nn3C)n2)ccn1 [Example 45]
≤ 1000 nM

Item: C[C@H](NC(=O)c1ccccc1)c1cc(-c2ccnc(C3CC3)c2)no1 (single isomer, unassigned) [Example 14]
≤ 1000 nM

Item: C[C@@H](NC(=O)c1cc(C(F)(F)F)nn1C)c1cc(-c2ccnc(C3CC3)c2)no1 (single isomer, unassigned) [Example 16]
≤ 1000 nM

Item: C[C@@H](NC(=O)c1cccc(Cl)c1)c1cc(-c2ccnc(C(F)(F)F)c2)no1 (single isomer, unassigned) [Example 20]
1000 to 20000 nM

Item: COc1cc(-c2nsc([C@H](C)NC(=O)c3cc(C(F)(F)F)nn3C)n2)ccn1 [Example 44]
≤ 1000 nM

Item: C[C@H](NC(=O)c1cccc(Cl)c1)c1cc(-c2ccnc(C(F)(F)F)c2)no1 (single isomer, unassigned) [Example 21]
≤ 1000 nM

Item: CC(C)c1cc(C(=O)N[C@@H](C)c2cc(-c3ccnc(C(F)(F)F)c3)no2)n(C)n1 (single isomer, unassigned) [Example 25]
≤ 1000 nM

Item: C[C@H](NC(=O)c1cc(C(F)(F)F)nn1C)c1cc(-c2ccnc(C3CC3)c2)no1 (single isomer, unassigned) [Example 17]
1000 to 20000 nM
